testTarget: human PCSK9 reference (human, UniProt Q8NBP7 31-692)
protocolText: ProteOn SPR, captured antibody, pH 7.6;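 also: antibodies captured via anti-human Fc on a GLC sensor chip, PCSK9 binding sensorgrams fitted to a 1:1 Langmuir model giving on and off rates, with KD derived from them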
Entries and their koff
Just the number in s⁻¹, nothing appended.

Example results:
Which koff is reported for this binder? CL-148489 (antibody, V domains shown, Human antibody with a kappa light chain) VH: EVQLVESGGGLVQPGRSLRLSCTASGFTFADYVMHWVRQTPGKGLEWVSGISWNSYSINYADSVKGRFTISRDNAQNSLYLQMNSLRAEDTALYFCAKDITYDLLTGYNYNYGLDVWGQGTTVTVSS VL: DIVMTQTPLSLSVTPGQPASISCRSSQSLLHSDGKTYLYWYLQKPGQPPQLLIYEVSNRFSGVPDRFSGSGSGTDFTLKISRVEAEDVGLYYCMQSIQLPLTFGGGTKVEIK
0.000163

Which koff is reported for this binder? CL-148219 (antibody, V domains shown, NLT motif in heavy chain framework 3 confirmed N-glycosylated by mass spectrometry, Human antibody, captured through anti-human Fc in the SPR assay) VH: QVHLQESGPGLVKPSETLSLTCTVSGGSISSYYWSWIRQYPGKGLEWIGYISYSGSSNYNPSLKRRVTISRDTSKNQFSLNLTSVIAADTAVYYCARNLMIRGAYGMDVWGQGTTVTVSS VL: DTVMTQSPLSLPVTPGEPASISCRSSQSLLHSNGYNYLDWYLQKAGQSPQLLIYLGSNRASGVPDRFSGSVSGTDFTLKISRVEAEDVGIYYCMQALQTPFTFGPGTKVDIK
0.00023

More entries:
Which koff is reported for this binder? CL-148219 QLT mutant (antibody, V domains shown) VH: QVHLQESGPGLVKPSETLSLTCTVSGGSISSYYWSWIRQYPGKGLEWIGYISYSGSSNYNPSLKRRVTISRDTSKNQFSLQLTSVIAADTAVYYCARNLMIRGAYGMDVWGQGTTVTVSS VL: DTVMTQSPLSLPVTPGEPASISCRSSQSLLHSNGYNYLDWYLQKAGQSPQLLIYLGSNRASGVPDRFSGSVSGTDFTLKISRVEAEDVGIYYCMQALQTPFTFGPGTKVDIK
0.000226

Which koff is reported for this binder? CL-274698 (antibody, V domains shown, Human antibody with a kappa light chain, derived from a PCSK9 knockout mouse) VH: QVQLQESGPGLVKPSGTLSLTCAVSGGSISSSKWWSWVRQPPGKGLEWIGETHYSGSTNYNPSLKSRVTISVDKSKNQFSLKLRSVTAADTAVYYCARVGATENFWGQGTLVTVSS VL: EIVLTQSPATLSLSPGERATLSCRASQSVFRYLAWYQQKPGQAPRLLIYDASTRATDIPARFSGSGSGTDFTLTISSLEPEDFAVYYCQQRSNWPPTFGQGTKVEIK
0.000125
